Listing of entries alongside the reported TGI.
test system: T-47D breast; assay: NCI tumour cell line growth inhibition, 48 h

The molecule listed as Cc1cc(C)n2nc3nc(N)c(C#N)c(-c4ccccc4)c3c2n1 shows TGI equal to > 100 µM

Kindly note the recorded TGI for NC(=Nc1c([N+](=O)[O-])cnc2ccccc12)N1CCOCC1 , which is > 100 µM

According to the records, this molecule O=C1NC(=O)C(c2cnc3ccccn23)=C1c1cn2c3c(cc(F)cc13)CN(C(=O)N1CCCCC1)CC2 displays TGI of > 69.2 µM

Reported TGI of CC(=O)Nc1ccc(C(=O)NN2C(=O)CSC2c2ccc([N+](=O)[O-])cc2)cc1 (stereo unspecified) : > 100 µM

Measured TGI of CC(=O)c1ccc(NCc2cc(O)ccc2O)cc1 : 63.1 µM

Reported TGI ( Cc1cc2c(cc1Cl)SC(NS(=O)(=O)c1ccc(Cl)cc1)=NS2(=O)=O ) = > 100 µM

---
TGI in this record for CCCC(=O)n1[nH]c(=O)n(-c2ccc(Cl)cc2)c1=O : > 100 µM

The recorded TGI for entry CN(C)CCCNC(=O)c1cc2[nH]c3c(cnc4ccc([N+](=O)[O-])cc43)c(=O)c2n1C equals 39.2 µM

The molecule listed as Cn1nc(N)c2cc([C@@H]3Nc4ccc5[nH]ncc5c4[C@H]4C5CCC(C5)[C@@H]34)ccc21 (stereo partly specified) shows TGI equal to 58.8 µM

// TGI lookup, molecule = N#Cc1c(NN)n(C2OC(CO)C(O)C2O)c2ncnc(N)c12 (stereo unspecified) , result: 0.118 µM

Field TGI (entry O/N=C/C1C(OCc2ccccc2)C(OCc2ccccc2)C(OCc2ccccc2)CN1Cc1ccccc1 (stereo unspecified) ) reads > 100 µM

Recorded TGI (molecule S=C1NC2(CCCCCC2)NN1c1ccccc1 ): > 100 µM

---

tested on: HT29 colon; experiment: NCI tumour cell line growth inhibition, 48 h
Reported TGI values are given for each entry in this list.

// TGI lookup, compound = CCCCCCCCCCCCOC1C(C(COC2OC(C3COC(C)(C)O3)C3OC(C)(C)OC23)NC(=O)Nc2ccc(C(=O)O)cc2)OC2OC(C)(C)OC21 (stereo unspecified) , result: 6.88 µM

The compound identified as CC(C)(Br)C(Br)CCC1(C2CO2)CO1 (stereo unspecified) registered its TGI at > 5 µM

The compound identified as CCOC(=O)C1(C#N)C(c2ccccc2)CC(O)(c2ccc(OC)cc2)C(C(=O)c2ccc(OC)cc2)C1c1ccccc1 (stereo unspecified) registered its TGI at > 100 µM

TGI recorded for this compound, CCOC(=O)CCCn1c(SC)nc2[nH]cc(-c3ccccc3)c2c1=O , is 59.7 µM

Next:
For reference, reported TGI for O=C(O)CC1NC(/C(=C/c2ccccc2)NC(=O)c2ccccc2)OC1=O (stereo unspecified) stands at > 100 µM

// TGI lookup, compound = CC(C)CCN1c2nc(Nc3cc(F)c(O)c(F)c3)ncc2N(C)C(=O)C1C (stereo unspecified) , result: 46.7 µM

Measured TGI of COc1cc(OC)c(-c2ccc(OCc3ccccc3)c3c(OC)cc(C)cc23)c2c1C(C)=N[C@H](C)C2 : 3.84 µM

Lookup result for NC(=O)NC1C(c2ccccc2)=C1c1ccccc1 ; measured TGI: 46.1 µM

Form field TGI, entry O=C(OC(CNc1cc(=O)n(Cc2ccccc2)c(=O)n1Cc1ccccc1)CN1CCCC1)c1ccccc1 (stereo unspecified) : > 100 µM

The value of TGI measured for the compound COc1ccc(/C=C(/C(=O)N2CCN(c3ccccc3)CC2)c2cc(OC)c(OC)c(OC)c2)cc1O turned out to be 38.5 µM

Consider Cc1ccc(C)c(C2=C(c3cn(C)c4ccccc34)C(=O)NC2=O)c1 . Its measured TGI is > 25 µM

Recorded result, CCCCCCCCCC1(N=[N+]=[N-])C(=O)c2ccccc2N(C)C1=O (stereo unspecified) , TGI: > 100 µM

---

system: SK-MEL-5 melanoma; assay: NCI tumour cell line growth inhibition, 48 h; in the data active = GI50 below about 0.43 µM; inactive = the rest
Respond only with the outcome that fits, drawn from label 1 for active, label 0 for inactive

Look over these answered cases.
Lookup: Hey, what did the test say about Cn1nc(N)c2cc([C@@H]3Nc4ccc5[nH]ncc5c4[C@H]4C5CCC(C5)[C@@H]34)ccc21 (stereo partly specified) ?
Found: label 1

Lookup: // param item: CCN(CC)CCCC(CNc1ccnc2cc(Cl)ccc12)c1ccc(Cl)cc1 (stereo unspecified) ; yields the recorded call
Found: label 0

Lookup: # lookup: test call for N#Cc1c(NN)n(C2OC(CO)C(O)C2O)c2ncnc(N)c12 (stereo unspecified)
Found: label 0

Lookup: # lookup: test call for CN(C)CCCNC(=O)c1cc2[nH]c3c(cnc4ccc([N+](=O)[O-])cc43)c(=O)c2n1C
Found: label 0

Lookup: Dear colleague, could you share the recorded outcome for O=C(Nc1nc2ccc(C(F)(F)F)cc2s1)c1cc(Cl)ccc1O when you have a moment?
Found: label 1

***
Lookup: Each compound tested received a call. Report the one for C=C1CC[C@@H]2[C@](C)(COC(C)=O)[C@H](OC(C)=O)CC[C@@]2(C)[C@@H]1CC(Sc1ccccc1)C1=CCOC1=O (stereo partly specified) .
Found: label 0

Lookup: Hi team, can someone confirm the assay call for COc1ccc(C(C)=O)cc1N1C(=O)C2C(C1=O)C1(c3ccccc3)C(=O)C2(c2ccccc2)C(c2ccc(C)cc2)=C1c1ccc(C)cc1 (stereo unspecified) ?
Found: label 0

Lookup: What did the test return for COc1cnc2c(c1)C(=O)c1c-2n(CCCNC(C)C)c(=O)c2cc(Cl)ccc12 ?
Found: label 0

Lookup: Any idea what this test logged for [Cl][Hg][c]1cc(Br)cc(Br)c1 ?
Found: label 0

Lookup: Please indicate how the test categorized N#CC(=C1C=CC(=NO)C=C1)c1ccccc1 .
Found: label 0

Lookup: Recorded call for CCC[CH2][Sn]1([CH2]CCC)[O]N=C(c2ccccc2)C(c2ccccc2)[O]1 (stereo unspecified) ?
Found: label 0

---

tested on: RPMI-8226 leukemia; experiment: NCI tumour cell line growth inhibition, 48 h
recorded.endpoint: TGI

Known TGI results, listed for orientation:
Recorded result, COc1ccc(C2C(Cl)C(=O)N2n2cnc3ccccc3c2=O)cc1 (centres undefined) , TGI: > 100 µM

Entry under test: CC(C)CC1C(=O)NCCC(NC(=O)C(Cc2ccc(OC(C)(C)C)cc2)NC(=O)OC(C)(C)C)C(=O)NC(Cc2ccccc2)C(=O)NC(Cc2ccccc2)NC1=O (centres undefined) . Its TGI was 54.4 µM

Continuing:
TGI measured on O=C1NC(NNc2ccccc2)=N/C1=C\c1ccccc1O = > 100 µM

// field: TGI; key: CCOC(=O)c1c(-c2ccc(OC)cc2)c(C#N)c(=S)n(C2OC(COC(C)=O)C(OC(C)=O)C(OC(C)=O)C2OC(C)=O)c1-c1ccccc1 (centres undefined) ; value = > 100 µM

The compound listed as CC(=O)Nc1ccc(N2C(=O)/C(=C\c3cccc(Oc4ccccc4)c3)S(=O)(=O)C2c2ccccc2)cc1 (centres undefined) has a reported TGI of 66.8 µM

---

Below, each of the compounds is paired with its reported TGI value.
system: UACC-257 melanoma; test: NCI tumour cell line growth inhibition, 48 h

Worked set:
Summary for this compound, O=C(O)CCC(=O)c1ccc[nH]1 : TGI is > 100 µM

TGI reading for Cc1cc(N)c(C)c2c1[nH]c1ccc(O)cc12 : > 100 µM

The recorded TGI for entry COc1ccc(C2COc3cc(OC(C)=O)c(OC(C)=O)cc3C2)cc1 (configuration not stated) equals 46.5 µM

---
Per the record, CC(C)c1ccccc1NC(=O)CCc1n[nH]c(=S)o1 has TGI of > 100 µM

The reported TGI of the compound OCC1OC(c2cccc3cc(O)c(O)cc23)CC1O (configuration not stated) was > 100 µM

Kindly note the recorded TGI for COc1cc(C(Cc2ccccc2)NC(C)=O)oc(=O)c1 (configuration not stated) , which is > 100 µM

Looking up COc1ccc2c(c1)CCCC(Br)C2=O (configuration not stated) , I see its TGI listed as 32.1 µM

---

// values below are reported TGI
tested on: SK-OV-3 ovarian; experiment: NCI tumour cell line growth inhibition, 48 h

Record excerpt, results attached:
I looked up COC(=O)c1cc2c3c(ccc2[nH]1)N(C(=O)c1cc2cc(OC)c(OC)c(OC)c2[nH]1)CC3CCl (centres undefined) and its TGI for SK-OV-3 ovarian was > 100 µM

Test item O=C(NCC(=O)N1CCCC1C(=O)OC(=O)C1CCCN1C(=O)CNC(=O)OCc1ccccc1)OCc1ccccc1 (centres undefined) ; SK-OV-3 ovarian; reported TGI was > 100 µM

Measured TGI for this entry CC(=O)Nc1ccc(N2C(=O)/C(=C\c3cccc(Oc4ccccc4)c3)S(=O)(=O)C2c2ccccc2)cc1 (centres undefined) on SK-OV-3 ovarian: > 100 µM

The compound Cc1cc(C)nc(NC(=O)c2ccc(Br)s2)c1 on SK-OV-3 ovarian: TGI was > 100 µM

Simply: CCCCc1c(N(C)C)c(OC(C)=O)c(-c2cn(C)c3ccccc23)oc1=O , SK-OV-3 ovarian, TGI = > 100 µM

Fill in: SK-OV-3 ovarian TGI for O=C1NC(NNc2ccccc2)=N/C1=C\c1ccccc1O = > 100 µM

Value (TGI, SK-OV-3 ovarian) for record FC(F)(F)c1ccc(N=C/C=C(/Nc2ccc(C(F)(F)F)cc2)c2ccc(Cl)cc2)cc1 = 39.1 µM

Kindly note: SK-OV-3 ovarian, CCOC(=O)C1(C#N)C(c2ccccc2)CC(O)(c2ccc(OC)cc2)C(C(=O)c2ccc(OC)cc2)C1c1ccccc1 (centres undefined) , TGI value reported: > 100 µM

---
Given the compound N#Cc1c(NN)n(C2OC(CO)C(O)C2O)c2ncnc(N)c12 (centres undefined) and test system SK-OV-3 ovarian, the measured TGI is 0.722 µM
